Target: Prostaglandin E2 receptor EP2 subtype (Homo sapiens) (UniProt P43116)
Sequence (P43116 whole entry, looked up): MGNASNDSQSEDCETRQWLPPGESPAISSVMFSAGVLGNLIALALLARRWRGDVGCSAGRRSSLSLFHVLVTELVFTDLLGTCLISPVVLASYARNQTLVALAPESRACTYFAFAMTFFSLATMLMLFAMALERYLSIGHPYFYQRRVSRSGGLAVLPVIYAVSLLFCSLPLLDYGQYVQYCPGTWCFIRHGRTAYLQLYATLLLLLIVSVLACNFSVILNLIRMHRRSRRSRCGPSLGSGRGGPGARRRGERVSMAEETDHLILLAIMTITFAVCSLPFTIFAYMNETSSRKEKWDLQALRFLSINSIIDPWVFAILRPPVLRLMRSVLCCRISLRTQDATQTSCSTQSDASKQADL
Assay: compounds shifting PGE2 potency at EP2 – cell-based, human EP2, PGE2 EC50 shift, dose response (AID 1421)
Settings: EP2-expressing cells, PGE2 EC50 shift by compound; at 20 µM
Screen size: about 1,300 compounds; about 140 (11%) were called active. These entries were drawn from the full list. Entries with a potency or affinity are not part of this list.
PGE2 EC50 with compound reference

## Input Request - read-out PGE2 EC50 with compound | tested on Prostaglandin E2 receptor EP2 subtype (Homo sapiens) (UniProt P43116) | compound Cc1cc([N+](=O)[O-])c(C)c(Br)c1C
## Output 0.91 nM (inactive)

## Input Request - read-out PGE2 EC50 with compound | tested on Prostaglandin E2 receptor EP2 subtype (Homo sapiens) (UniProt P43116) | compound C=CCSc1nc2ccsc2c(=O)n1-c1ccccc1
## Output 0.37 nM (inactive)

## Input Request - read-out PGE2 EC50 with compound | tested on Prostaglandin E2 receptor EP2 subtype (Homo sapiens) (UniProt P43116) | compound O=C(O)COc1ccc2occ(C(=O)c3ccccc3)c2c1
## Output 0.37 nM (inactive)

## Input Request - read-out PGE2 EC50 with compound | tested on Prostaglandin E2 receptor EP2 subtype (Homo sapiens) (UniProt P43116) | compound CN(C)c1nccc(N(Cc2ccccc2)Cc2ccccc2)c1C#N
## Output 0.29 nM (inactive)

## Input Request - read-out PGE2 EC50 with compound | tested on Prostaglandin E2 receptor EP2 subtype (Homo sapiens) (UniProt P43116) | compound CCOP(=O)(OCC)c1nc(-c2cccc3ccccc23)oc1NCCc1ccc(OC)cc1
## Output 0.72 nM (inactive)

## Input Request - read-out PGE2 EC50 with compound | tested on Prostaglandin E2 receptor EP2 subtype (Homo sapiens) (UniProt P43116) | compound CC(C)NC(=S)N/N=C1\CCCCC1C1CCCCC1 (centres undefined)
## Output 0.74 nM (inactive)

## Input Request - read-out PGE2 EC50 with compound | tested on Prostaglandin E2 receptor EP2 subtype (Homo sapiens) (UniProt P43116) | compound S=C(Nc1ccccc1Cl)N(Cc1ccccc1)Cc1ccccn1
## Output 0.41 nM (inactive)
